Catalogue of protein stability index values
B1: PRIM1 (parent)
chain: CCSSADICPKCWTLMTMAIRIIDR

Variants of: B1
Protocol description: protein stability index of a GFP-peptide fusion (GPS, HEK-293T) (PSI 1-6); higher = more stable;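 also: lentivirally expressed fusions sorted by FACS into six bins by GFP to DsRed ratio, PSI derived from sequencing read proportions per bin multiplied by bin number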
Condition label: c terminus: a fixed tail appended
Measurement type: protein stability index

1) CCSSADICPKCWTLRTMAIRIIDR :: 2.35
2) CCSSADVCPKCWTLMTMAIRIIDR :: 1.88
3) CCSSADICPKCWTLMTMAIRIIPR :: 2.42
4) CCSSADICPKCWTHMTMAIRIIDR :: 1.6
5) CCSSADICPKCWTPMTMAIRIIDR :: 2.27
6) CCSSADICPKCWTLMTMAIRIIMR :: 1.64
7) CCSSADICPRCWTLMTMAIRIIDR :: 2.3
8) CCSSADICPKCWTLMTMAIHIIDR :: 2.05
9) CCSSADICAKCWTLMTMAIRIIDR :: 1.53
10) CCSSADICPKCWTLMTMAHRIIDR :: 2.8
11) CCSSADICPKAWTLMTMAIRIIDR :: 4.39
12) CCSSADICLKCWTLMTMAIRIIDR :: 1.77
13) CCSSADICPKFWTLMTMAIRIIDR :: 2.58
14) CCSSADICPKCWTLDTMAIRIIDR :: 2.03
15) CCSSLDICPKCWTLMTMAIRIIDR :: 1.15
16) CCSSADICPFCWTLMTMAIRIIDR :: 1.95
17) CCSSADICSKCWTLMTMAIRIIDR :: 1.96
18) CCSSADICPKCWTLMTMTIRIIDR :: 1.56
19) LCSSADICPKCWTLMTMAIRIIDR :: 2
20) CCSSASICPKCWTLMTMAIRIIDR :: 1.86
21) CCSSADICRKCWTLMTMAIRIIDR :: 1.73
22) CYSSADICPKCWTLMTMAIRIIDR :: 1.96
23) CPSSADICPKCWTLMTMAIRIIDR :: 2.21
24) CCSSADICPKCWTLMTMAIRIIDQ :: 1.52
25) CCSSADICPKCWTLMTMAIKIIDR :: 1.19
26) CCSSADICPKCWTLMTMAIREIDR :: 1.58
27) CCSSADFCPKCWTLMTMAIRIIDR :: 2.63
28) CCSSADICPKCWTLMTIAIRIIDR :: 1.94
29) CSSSADICPKCWTLMTMAIRIIDR :: 1.96
30) CCSSADICPKCWTLMTMAIRLIDR :: 1.49
31) CCSSADICPKCWTLMTMAIRIIDT :: 1.97
32) CCSSKDICPKCWTLMTMAIRIIDR :: 1.93
33) CCSSADICPKCGTLMTMAIRIIDR :: 2.2
34) CCSSADICPKCWTEMTMAIRIIDR :: 2.06
35) CCSYADICPKCWTLMTMAIRIIDR :: 1.91
36) CCSSADICPKCWTLMTMAIRIIHR :: 1.69
37) CCSSWDICPKCWTLMTMAIRIIDR :: 2.15
38) CCSSADICPKCWTLMTMAIRAIDR :: 2.2
39) CESSADICPKCWTLMTMAIRIIDR :: 1.83
40) CCSSADICGKCWTLMTMAIRIIDR :: 1.9
41) CCSSADICPKCWTLMTMAIQIIDR :: 3.56
42) CCSSADICPKCWTLMTMAIRIIQR :: 2.09
43) CCSSADICPKCWTLMTMAIRIIDK :: 1.25
44) CCSSADICPKCWTLMTMAIRIADR :: 2.1
45) CCSSADICPKCWTLMTMAIRIIVR :: 2.31
46) CCSSADICPKCWTLMTMAIRIIDW :: 2.19
47) CCSSAFICPKCWTLMTMAIRIIDR :: 2.11
48) CCSSADICPKCWTLMTMAMRIIDR :: 2.33
49) CCSSADICPKCWTLETMAIRIIDR :: 2.01
50) CCSSADICPKCWTCMTMAIRIIDR :: 1.8
51) CCSSADICPKCWTLMTMAIRRIDR :: 2.75
52) CCSSADICPKCWTFMTMAIRIIDR :: 2.06
53) CCSSADICPKCWTLMTMAIRWIDR :: 1.9
54) CCSSHDICPKCWTLMTMAIRIIDR :: 1.71
55) CCFSADICPKCWTLMTMAIRIIDR :: 1.51
56) CCSQADICPKCWTLMTMAIRIIDR :: 2.66
57) CGSSADICPKCWTLMTMAIRIIDR :: 1.6
58) CCSSADICPKCWTLMFMAIRIIDR :: 2.12
59) YCSSADICPKCWTLMTMAIRIIDR :: 1.37
60) CCSSADICPKCWTLMTMAIRIIKR :: 1.41
61) CCSSADISPKCWTLMTMAIRIIDR :: 1.54
62) CCSSADICPKCWTLMTMAIRTIDR :: 1.68
63) VCSSADICPKCWTLMTMAIRIIDR :: 2.87
64) CCSSADICPKCWMLMTMAIRIIDR :: 1.59
65) CISSADICPKCWTLMTMAIRIIDR :: 1.74
66) CCSSADTCPKCWTLMTMAIRIIDR :: 1.77
67) CCNSADICPKCWTLMTMAIRIIDR :: 1.95
68) CCSSADICPKCWTLMTMAIRNIDR :: 2.46
69) CCSSADIAPKCWTLMTMAIRIIDR :: 3.21
70) CCSSADICPKCWTLMTMRIRIIDR :: 1.94
71) CCSSADICPKCWTLMTFAIRIIDR :: 1.94
72) CCSSADICPKCWTLMTMAIRIIDP :: 3.32
73) CCSSADICPKCNTLMTMAIRIIDR :: 1.83
74) CCSSADICPKCRTLMTMAIRIIDR :: 2.56
75) CCSSADICPKCWTLMTMAITIIDR :: 1.67
76) CCSVADICPKCWTLMTMAIRIIDR :: 2.19
77) CCSSADIVPKCWTLMTMAIRIIDR :: 2.88
78) CCSSADICPKCWTLMTMPIRIIDR :: 2.1
